B1: MNAT1 (parent)
chain: SLREYNDFLEEVEEIVFNLTNNVD

variants of: B1; assay: protein stability index of a GFP-peptide fusion (GPS, HEK-293T) (PSI 1-6); higher = more stable; details: c terminus: a fixed tail appended;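 further: lentivirally expressed fusions sorted by FACS into six bins by GFP to DsRed ratio, PSI derived from sequencing read proportions per bin multiplied by bin number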
Hi all, reminder that labels come from protein stability index, split as lower band (below 2), central band (2 to below 3), upper band (3 or more)

query.sequence | answer.label
SLREYNDFKEEVEEIVFNLTNNVD [L9K] | upper band
SLREYNDFLEEVEEIVFNLTNNTD [V23T] | central band
SLREYNDFLEEVEEIVGNLTNNVD [F17G] | upper band
SLREYNDFLEEVEEIPFNLTNNVD [V16P] | upper band
SLREYNDHLEEVEEIVFNLTNNVD [F8H] | upper band
SLREYNDFLEEVEEIVFNLTTNVD [N21T] | central band
SLREYNDFLEEVWEIVFNLTNNVD [E13W] | central band
SLTEYNDFLEEVEEIVFNLTNNVD [R3T] | lower band
SLREYNDFLEEVEEIVFYLTNNVD [N18Y] | lower band
SLRELNDFLEEVEEIVFNLTNNVD [Y5L] | central band
SLREYNDFLEEVEEIVFNLTNNVF [D24F] | lower band
SLREYNDSLEEVEEIVFNLTNNVD [F8S] | upper band
SLREYNDFLEEVEEIVFNLTMNVD [N21M] | central band
SLREYNDNLEEVEEIVFNLTNNVD [F8N] | upper band
SLREYNDFLEEVEEIVFCLTNNVD [N18C] | lower band
SLRRYNDFLEEVEEIVFNLTNNVD [E4R] | lower band
SLREYNDFLEEVEEIVFNLTNKVD [N22K] | central band
SLREYNDFLEEVEEMVFNLTNNVD [I15M] | central band
SLREYNDFLEEVEEIVFNWTNNVD [L19W] | lower band
SLKEYNDFLEEVEEIVFNLTNNVD [R3K] | central band
SLREYNDFLEEVEEIVFNLINNVD [T20I] | lower band
SLREYNDFLEEVEEIVFDLTNNVD [N18D] | central band
SLREYNDFLEEVEEIVFNLTNVVD [N22V] | lower band
SLREANDFLEEVEEIVFNLTNNVD [Y5A] | upper band
SLRWYNDFLEEVEEIVFNLTNNVD [E4W] | lower band
SLREYNDFLEAVEEIVFNLTNNVD [E11A] | lower band
SLREYNDFLEEVEEIVFNLTNNMD [V23M] | lower band
SLREYNDFLEEVEEIVCNLTNNVD [F17C] | central band
SLREYNDFLEEVEEIVFNLTNNVA [D24A] | lower band
SDREYNDFLEEVEEIVFNLTNNVD [L2D] | upper band
SLREYNDFLEEVEEIVFWLTNNVD [N18W] | central band
SLRHYNDFLEEVEEIVFNLTNNVD [E4H] | central band
SLREYNDRLEEVEEIVFNLTNNVD [F8R] | upper band
SLREYNDFLEEVEEIVFNLTNNRD [V23R] | central band
SLREYNDFLEEVEEIVFNLYNNVD [T20Y] | lower band
SLREYNDFLEYVEEIVFNLTNNVD [E11Y] | central band
SLREYNDTLEEVEEIVFNLTNNVD [F8T] | upper band
SLDEYNDFLEEVEEIVFNLTNNVD [R3D] | central band
SLREYNDLLEEVEEIVFNLTNNVD [F8L] | upper band
SLREKNDFLEEVEEIVFNLTNNVD [Y5K] | upper band
SLREYNDFLVEVEEIVFNLTNNVD [E10V] | central band
SLREYNYFLEEVEEIVFNLTNNVD [D7Y] | lower band
SLREYNDFLEEVEEIVANLTNNVD [F17A] | central band
SLREYNDFLGEVEEIVFNLTNNVD [E10G] | central band
SLREYNDFLEEVEEIVFNLVNNVD [T20V] | lower band
SLREYNDFLEEVEEIVFNLANNVD [T20A] | lower band
SLREYNDFLEEVQEIVFNLTNNVD [E13Q] | lower band
SLREYNDQLEEVEEIVFNLTNNVD [F8Q] | upper band
SLREYNDFQEEVEEIVFNLTNNVD [L9Q] | upper band
SLREYNDFLERVEEIVFNLTNNVD [E11R] | central band
SLREYNDFLEEVEEIVRNLTNNVD [F17R] | central band
SLREYNDFLEWVEEIVFNLTNNVD [E11W] | central band
SLREYNDFLEEVEEIVMNLTNNVD [F17M] | central band
SLREYVDFLEEVEEIVFNLTNNVD [N6V] | lower band
SLREYNDFLEEVEEIVFNLTNPVD [N22P] | central band
SLREYNDFLEEVEEIVFNLTNNCD [V23C] | central band
SLREYNDFLEEFEEIVFNLTNNVD [V12F] | lower band
SLREPNDFLEEVEEIVFNLTNNVD [Y5P] | upper band
SLREYNDFLEEVEEGVFNLTNNVD [I15G] | upper band
SLREYNDFLEEVLEIVFNLTNNVD [E13L] | central band
SLREYNDFLEEVEEIVFNLTNNKD [V23K] | central band
SLREYNDFNEEVEEIVFNLTNNVD [L9N] | upper band
SLREYNDFLEEVEEIVFNLTLNVD [N21L] | lower band
SLREYNDFLEEVEEIVFPLTNNVD [N18P] | central band
SLREYWDFLEEVEEIVFNLTNNVD [N6W] | central band
SLREYNDFLEEVEERVFNLTNNVD [I15R] | upper band
SLREYNDFLQEVEEIVFNLTNNVD [E10Q] | central band
SLREYNDFLEEVENIVFNLTNNVD [E14N] | central band
SLREYNDFIEEVEEIVFNLTNNVD [L9I] | central band
SLREYGDFLEEVEEIVFNLTNNVD [N6G] | upper band
SLREYNDFLECVEEIVFNLTNNVD [E11C] | central band
